test: Dissociation constant, apparent pKa of the compound; format: physicochemical
pKa of 10 or higher: Criterion met. Under 10: Criterion not met.

The examples below pair each entry with its known result.
Clc1cc2nc(-c3ccncc3)[nH]c2cc1Cl
Criterion not met
O=[N+]([O-])c1c[nH]cn1
Criterion not met
c1ccc2[nH]c(-c3ccncc3)nc2c1
Criterion met

Then this compound:
hey, is pKa for this one >= 10? COC(=O)c1nc(-c2ccncc2)[nH]c1C(=O)OC
Criterion not met

---

target: Xanthine dehydrogenase/oxidase (Bos taurus, UniProt P80457)
Sequence (P80457 whole entry): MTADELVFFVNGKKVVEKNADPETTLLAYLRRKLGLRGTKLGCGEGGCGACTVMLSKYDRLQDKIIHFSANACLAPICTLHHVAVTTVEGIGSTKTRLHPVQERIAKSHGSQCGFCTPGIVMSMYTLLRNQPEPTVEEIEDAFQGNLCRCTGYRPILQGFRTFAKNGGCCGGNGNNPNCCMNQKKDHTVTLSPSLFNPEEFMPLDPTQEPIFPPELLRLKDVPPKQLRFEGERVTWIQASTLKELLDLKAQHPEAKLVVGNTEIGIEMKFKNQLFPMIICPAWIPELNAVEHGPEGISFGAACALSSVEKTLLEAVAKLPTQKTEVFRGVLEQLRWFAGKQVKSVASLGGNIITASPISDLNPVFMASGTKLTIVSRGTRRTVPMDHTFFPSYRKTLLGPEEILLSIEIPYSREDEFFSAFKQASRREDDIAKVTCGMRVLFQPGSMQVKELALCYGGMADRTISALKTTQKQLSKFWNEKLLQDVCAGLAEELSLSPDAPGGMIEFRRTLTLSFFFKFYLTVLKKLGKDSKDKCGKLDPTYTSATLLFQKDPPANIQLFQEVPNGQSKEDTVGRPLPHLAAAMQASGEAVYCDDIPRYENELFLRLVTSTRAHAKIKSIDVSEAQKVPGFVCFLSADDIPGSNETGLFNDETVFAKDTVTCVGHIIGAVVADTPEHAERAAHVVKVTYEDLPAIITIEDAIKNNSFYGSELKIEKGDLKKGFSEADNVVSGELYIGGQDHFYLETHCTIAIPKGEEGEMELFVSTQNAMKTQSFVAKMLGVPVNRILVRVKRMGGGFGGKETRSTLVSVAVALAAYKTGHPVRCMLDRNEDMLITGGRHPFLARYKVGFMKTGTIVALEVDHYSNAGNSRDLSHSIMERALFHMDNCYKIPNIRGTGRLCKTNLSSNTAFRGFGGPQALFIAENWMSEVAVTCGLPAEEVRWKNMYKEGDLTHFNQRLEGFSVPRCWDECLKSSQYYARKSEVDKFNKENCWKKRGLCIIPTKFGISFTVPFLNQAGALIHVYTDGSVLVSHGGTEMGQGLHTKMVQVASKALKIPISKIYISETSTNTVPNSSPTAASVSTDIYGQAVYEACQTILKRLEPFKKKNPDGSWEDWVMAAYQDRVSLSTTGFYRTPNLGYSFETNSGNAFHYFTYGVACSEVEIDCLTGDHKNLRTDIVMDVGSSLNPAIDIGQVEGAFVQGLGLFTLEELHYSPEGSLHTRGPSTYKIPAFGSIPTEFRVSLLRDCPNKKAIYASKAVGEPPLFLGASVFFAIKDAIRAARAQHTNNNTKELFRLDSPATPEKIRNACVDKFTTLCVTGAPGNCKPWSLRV
measured_property: log10(IC50) (log10 of the value in µM)
All values: base-10 log of IC50 in µM.

These recorded examples may help you get a feel for the data.
O=[N+]([O-])c1cnc(-c2cccnc2)[nH]1
0.11
O=C(O)c1nc(-c2ccncc2)[nH]c1C(=O)O
0.76
N#Cc1nc(-c2cccnc2)[nH]c1C#N
1.54
O=C(O)c1nc(-c2cccnc2)[nH]c1C(=O)O
0.00

Continue with the molecule presented below.
// returns log10(IC50) for Clc1cc2nc(-c3ccncc3)[nH]c2cc1Cl with Xanthine dehydrogenase/oxidase (Bos taurus, UniProt P80457); value = 1.18
